// data source = patent US20250361322A1

Reported pEC50 values are given for each entry in this list.
Molecular target: T1, human Tissue Factor on human TF-positive cells (human, UniProt P13726 33-295)
T1 construct: also called hTF; CD142
Assay: flow cytometry, antibody titration on MDA-MB-231 cells (human TF), 4-parameter fit of MFI
Please report pEC50 as the negative decimal logarithm of the molar concentration, giving only the number.

25A3 (antibody, human IgG1, V domains shown, Human IgG1; also called antibody designated 25A3) VH: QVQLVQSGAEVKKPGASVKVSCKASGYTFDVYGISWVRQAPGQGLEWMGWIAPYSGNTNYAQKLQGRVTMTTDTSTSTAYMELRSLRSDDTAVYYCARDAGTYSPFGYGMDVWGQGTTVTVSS VL: DIQMTQSPSTLSASVGDRVTITCQASQSINNWLAWYQQKPGKAPKLLIYKAYNLESGVPSRFSGSGSGTEFTLTISSLQPDDFATYYCQLFQSLPPFTFGGGTKVEIK = 9.77
39A (antibody, human IgG1, V domains shown, Human IgG1; also called antibody designated 39A) VH: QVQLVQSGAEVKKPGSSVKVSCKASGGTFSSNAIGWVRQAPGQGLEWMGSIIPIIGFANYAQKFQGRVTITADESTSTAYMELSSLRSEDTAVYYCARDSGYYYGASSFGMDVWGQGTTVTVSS VL: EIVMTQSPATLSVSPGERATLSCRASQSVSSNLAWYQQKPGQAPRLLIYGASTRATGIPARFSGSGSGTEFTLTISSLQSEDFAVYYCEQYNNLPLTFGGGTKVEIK = 10.22

Lookup: Look up pEC50 of 25G1 (antibody, human IgG1, V domains shown, Human IgG1; also called antibody designated 25G1) VH: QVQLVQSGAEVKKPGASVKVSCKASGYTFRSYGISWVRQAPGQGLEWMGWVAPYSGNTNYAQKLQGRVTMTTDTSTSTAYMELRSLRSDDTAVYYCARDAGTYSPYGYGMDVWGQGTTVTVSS VL: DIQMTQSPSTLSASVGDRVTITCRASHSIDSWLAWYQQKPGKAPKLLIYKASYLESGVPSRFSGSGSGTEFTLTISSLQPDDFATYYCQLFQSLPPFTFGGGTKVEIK and report it.
Found: 9.77

Lookup: Given the binder 25A (antibody, human IgG1, V domains shown, Human IgG1; also called antibody designated 25A) VH: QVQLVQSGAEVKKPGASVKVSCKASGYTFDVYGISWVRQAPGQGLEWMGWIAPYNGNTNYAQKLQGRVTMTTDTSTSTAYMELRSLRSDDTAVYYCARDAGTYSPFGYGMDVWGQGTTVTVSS VL: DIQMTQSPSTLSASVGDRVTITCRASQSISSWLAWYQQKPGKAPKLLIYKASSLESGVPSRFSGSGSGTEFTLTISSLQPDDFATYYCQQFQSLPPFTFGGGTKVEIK , write its reported pEC50.
Found: 9.57
